Experiment notes: Displacement of [3H]Gabapentin from alpha2delta calcium channel in pig brain tissue homogenates after 45 mins by scintillation counting
Type: tissue-based, Sus scrofa
Reported values of IC50 for individual entries
Measured endpoint: IC50 (nM)

[[record]]
compound = "C[C@H](CNCC(=O)O)Oc1ccc(Br)cc1"
reported_result = 6670

[[record]]
compound = "O=C(O)CNCCSc1cccc(Br)c1"
reported_result = 428

[[record]]
compound = "O=C(O)CNCCSc1ccccc1"
reported_result = 5400

[[record]]
compound = "O=C(O)CNCCSc1ccc(F)cc1"
reported_result = 2500

[[record]]
compound = "C[C@@H](CNCC(=O)O)Oc1ccc(Br)cc1"
reported_result = 441

[[record]]
compound = "O=C(O)CNCCOc1ccc(Cl)cc1"
reported_result = 6590

[[record]]
compound = "O=C(O)CNCCSc1ccc2ccccc2c1"
reported_result = 22

[[record]]
compound = "NCc1ccc(SCCNCC(=O)O)cc1"
reported_result = 900

[[record]]
compound = "O=C(O)CNCCSc1ccc2ccncc2c1"
reported_result = 83

[[record]]
compound = "N#Cc1ccc(SCCNCC(=O)O)cc1"
reported_result = 680

[[record]]
compound = "CCC(CNCC(=O)O)Oc1ccc(Br)cc1 (racemic)"
reported_result = 214

[[record]]
compound = "CC(CNCC(=O)O)Oc1ccc(Cl)cc1 (racemic)"
reported_result = 523

[[record]]
compound = "O=C(O)CNCCSc1ccc(Cl)cc1"
reported_result = 195

[[record]]
compound = "O=C(O)CNCCSc1ccc(Br)cc1"
reported_result = 59

[[record]]
compound = "CCC(CNCC(=O)O)Oc1cccc(Cl)c1 (racemic)"
reported_result = 40


###

Experiment notes: Volume of distribution in iv dosed rat
Format: ADME, organism-based
Test parameters: in vivo
Measured endpoint: Vd (L/kg)

[[record]]
test_smiles = "O=C(O)CNCCSc1ccc2ccccc2c1"
unit_string = "L/kg"
reported_result = 0.6


###

Experiment notes: Tmax in iv dosed rat
Format: ADME, organism-based
Test parameters: in vivo
Measured endpoint: Tmax (min)

[[record]]
test_smiles = "O=C(O)CNCCSc1ccc2ccccc2c1"
measured_endpoint = "Tmax"
reported_result = 15

